Recorded values, source PubChem BioAssay (NCI).

// reported growth inhibition per item
- Method: NCI Yeast Anticancer Drug Screen. Data for the cln2 rad14 strain (AID 165);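 also: 0% = growth equal to vehicle treated cultures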
- Measurement parameters: S. cerevisiae cln2 rad14 strain, at 5.0 µM (retest, dose inferred, filed as 0.5), hits give high values
About 79,000 compounds went through this panel and 15% of them were active in at least one assay; those are over-represented in the sample as a whole.
Value expressed in %; do not type the unit.

molecule="C[N+]1(C)CCCC(OCCCCCCCCCCCCCCOC2CCC[N+](C)(C)C2)C1 (stereo not given)" attribute_measured="growth inhibition" units=% value_observed=37
molecule=CCCCCCCCCCCCCCCCOC(=O)C[n+]1ccc(C(N)=O)cc1 attribute_measured="growth inhibition" units=% value_observed=0

As a next step, examine the molecule that follows.
Recorded growth inhibition (molecule COc1ccc2cc(Br)ccc2c1 ): 8

* * *

- Method: NCI Yeast Anticancer Drug Screen. Data for the sgs1 mgt1 strain (AID 161);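 also: 0% = growth of cultures given vehicle only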
- Measurement parameters: S. cerevisiae sgs1 mgt1 strain, at 5.0 µM (retest, dose inferred, filed as 0.5), hits give high values
The panel holds about 79,000 compounds, 15% with a hit somewhere; the sample as a whole holds those more often.
Attribute measured: growth inhibition (%)
Value expressed in %; do not type the unit.

compound="CN(C)[C@H]1CC[C@H]2[C@@H]3CCC4C[C@@H](NC(=O)NC(Cc5ccccc5)c5nccs5)CC[C@]4(C)[C@H]3CC[C@]12C (stereo not given in full)" value_observed=-11
compound=O/N=C(/CCc1ccccc1Cl)c1ccccc1 value_observed=3
compound="COc1ccc(C2C3CCCC(C3=O)C(c3ccc(OC)cc3)N2N=O)cc1 (stereo not given)" value_observed=-4

Recorded growth inhibition (compound O=C(CC(=O)C(F)(F)F)c1ccc(-c2ccccc2)cc1 ): 39

Recorded growth inhibition (compound O=C1C(C(O)(C(F)(F)Cl)C(F)(F)Cl)CCCC1C(O)(C(F)(F)Cl)C(F)(F)Cl (stereo not given) ): 95

* * *

// reported growth inhibition per item
- Method: NCI Yeast Anticancer Drug Screen. Data for the mlh1 rad18 strain (AID 175)
- Measurement parameters: S. cerevisiae mlh1 rad18 strain growth inhibition; at 50.0 µM; hits give high values
Compounds without any hit were thinned out: in the full panel of roughly 79,000, 15% have a hit.
Value expressed in %; do not type the unit.

Illustrative cases are given below, each with its answer.
molecule=N=C(N)c1ccc(Nc2ccc(C(=N)N)cc2)cc1 units=% value_observed=91
molecule="O=C1CSC(c2ccc(Cl)cc2)N1c1ccc(-c2ccc(-n3c(-c4ccccc4)nc4ccccc4c3=O)cc2)cc1 (stereo not given)" units=% value_observed=87.5
molecule=CC(C)Cn1cnc2c(SCc3ccccc3[N+](=O)[O-])nc(N)nc21 units=% value_observed=84.8

Recorded growth inhibition (molecule CCOC(=O)c1ccc(-c2cccs2)n1C ): 43.2

Recorded growth inhibition (molecule COc1ccc2c(c1)[n+]([O-])c(-c1ccc(C)cc1)c(N)[n+]2[O-] ): 99.2

* * *

- Method: NCI Yeast Anticancer Drug Screen. Data for the sgs1 mgt1 strain (AID 161);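 also: 0% = growth of cultures given vehicle only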
- Measurement parameters: S. cerevisiae sgs1 mgt1 strain, at 50.0 µM (retest, dose inferred, filed as 5.0), hits give high values
This is part of a sample that, as a whole, favours compounds with a hit. Of some 79,000 tested, about 15% had one in any assay. Activity calls are given as the source filed them. Cut-off read from the data, not from the text of the source: active = growth inhibition above about 70%; inactive = the rest.
Attribute measured: growth inhibition

Illustrative cases are given below, each with its answer.
molecule="CC(SC1=CC(=O)c2c(O)ccc(O)c2C1=O)C(=O)O (configuration not stated)" attribute_measured="growth inhibition" value_observed="5% (inactive)"
molecule=O=Cc1ccc2cc(Cl)ccc2n1 attribute_measured="growth inhibition" value_observed="-63% (inactive)"
molecule=O/N=C(/CCc1ccccc1)c1ccccc1 attribute_measured="growth inhibition" value_observed="76% (active)"
molecule=OC(c1ccc(Cl)cc1)c1ccc(Cl)cc1 attribute_measured="growth inhibition" value_observed="100% (active)"
molecule=O/N=C1/CCCC/C1=C\c1ccc(Cl)c(Cl)c1 attribute_measured="growth inhibition" value_observed="100% (active)"

Recorded growth inhibition (molecule CC1=C(C(=O)Nc2cccc(Cl)c2)C(c2ccccc2F)C(C(=O)Nc2cccc(Cl)c2)=C(C)N1 ): 37% (inactive)

Recorded growth inhibition (molecule CC(=O)OC1=CC(n2cc(F)c(=O)[nH]c2=O)OC(C)C1=O (configuration not stated) ): 64% (inactive)

Recorded growth inhibition (molecule CC(C)N(C(=O)C12C3C4C1C1C2C3C41I)C(C)C (configuration not stated) ): 27% (inactive)

Recorded growth inhibition (molecule C/C(=N\NC(=S)N(C)C)c1cccnn1 ): 98% (active)

Recorded growth inhibition (molecule c1ccc(N/N=C2/CCCC3/C(=N\Nc4ccccc4)CCCC23)cc1 (configuration not stated) ): 99% (active)

Recorded growth inhibition (molecule O=C(O)c1c[nH]c2cc(Cl)ccc2c1=O ): -3% (inactive)

Recorded growth inhibition (molecule CCOC(=O)C(N=Nc1ccc(Br)c(C)c1)C(C)=O (configuration not stated) ): 92% (active)
